Target: Adenosine receptor A1 (Rattus norvegicus)
Experiment: Displacement of [3H]R-PIA from adenosine A1 receptor of rat cortical membranes
Type: cell membranes, Membrane
Assay Readout: Ki (nM)

{"columns": ["Compound String", "Assay Readout", "Scale Unit", "Val"],
 "data": [
  ["CSC[C@H]1O[C@@H](n2cnc3c(N)ncnc32)[C@H](O)[C@@H]1O", "Ki", "nM", 240]
]}

----------
Biological target: Adenosine receptor A1 (Rattus norvegicus)
Sequence (whole entry): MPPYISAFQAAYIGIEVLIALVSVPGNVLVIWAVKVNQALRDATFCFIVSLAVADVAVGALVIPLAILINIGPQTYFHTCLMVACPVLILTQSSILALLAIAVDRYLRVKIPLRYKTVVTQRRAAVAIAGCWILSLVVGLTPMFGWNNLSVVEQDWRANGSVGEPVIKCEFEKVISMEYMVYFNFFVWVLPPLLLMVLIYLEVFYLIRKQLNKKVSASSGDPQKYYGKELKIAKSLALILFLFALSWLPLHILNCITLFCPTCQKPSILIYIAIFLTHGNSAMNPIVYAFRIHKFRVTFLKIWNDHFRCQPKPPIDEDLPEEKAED
Experiment: Binding affinity against adenosine A1 receptor in the presence of GTP relative to the absence of GTP
Assay Readout: Ratio

{"columns": ["Compound", "Val"],
 "data": [
  ["CC(=O)O[C@]1(C(C)=O)CC[C@H]2[C@@H]3C=C(Cl)C4=CC(=O)[C@@H]5C[C@@H]5[C@]4(C)[C@H]3CC[C@@]21C [CYPROTERONE ACETATE]", 22.8],
  ["CO/C(=C\\c1ccc(O)cc1)C(=O)O[C@@H]1[C@H](OC(=O)/C=C/c2c[nH]cn2)[C@@H](CSC)O[C@H]1n1cnc2c(N)ncnc21", 6.2],
  ["CSC[C@H]1O[C@@H](n2cnc3c(N)ncnc32)[C@H](O)[C@@H]1O [METHYLTHIOADENOSINE]", 22.2],
  ["Cn1cnc2c(N)ncnc21", 1.2]
]}

----------
Molecular target: UniProt P25099
Sequence (P25099 whole entry): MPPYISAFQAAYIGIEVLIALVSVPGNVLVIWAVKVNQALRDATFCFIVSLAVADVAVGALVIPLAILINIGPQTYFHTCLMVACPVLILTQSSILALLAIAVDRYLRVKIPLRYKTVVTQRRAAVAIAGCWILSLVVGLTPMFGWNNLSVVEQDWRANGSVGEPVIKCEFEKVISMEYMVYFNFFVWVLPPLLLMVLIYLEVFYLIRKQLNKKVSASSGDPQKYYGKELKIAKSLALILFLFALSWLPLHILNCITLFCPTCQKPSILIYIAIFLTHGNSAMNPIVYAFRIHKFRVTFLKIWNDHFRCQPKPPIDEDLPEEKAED
Assay: Displacement of [3H]DPCPX from adenosine A1 receptor of rat cortical membranes with GTP
Assay type: cell membranes, Membrane
This listing pairs compounds with measured IC50.

{"columns": ["Compound", "Scale Unit", "IC50"],
 "data": [
  ["Cn1cnc2c(N)ncnc21", "µM", 14.7],
  ["CSC[C@H]1O[C@@H](n2cnc3c(N)ncnc32)[C@H](O)[C@@H]1O", "µM", 15.1],
  ["CC(=O)O[C@]1(C(C)=O)CC[C@H]2[C@@H]3C=C(Cl)C4=CC(=O)[C@@H]5C[C@@H]5[C@]4(C)[C@H]3CC[C@@]21C [CYPROTERONE ACETATE]", "µM", 0.125],
  ["CO/C(=C\\c1ccc(O)cc1)C(=O)O[C@@H]1[C@H](OC(=O)/C=C/c2c[nH]cn2)[C@@H](CSC)O[C@H]1n1cnc2c(N)ncnc21", "µM", 143]
]}

Values were extracted from ChEMBL document CHEMBL1148450.
